Every entry's value here was drawn from paper PMC10562458.

Listed here are compounds together with their documented Pericardial Effusion Rate(%).
system: zebrafish embryos; conditions: zebrafish, in vivo
readout.kind: Pericardial Effusion Rate(%)

{"columns": ["test.smiles", "readout.kind", "readout.number"],
 "data": [
  ["CCC(CC)COC(=O)[C@H](C)N[P@](=O)(OC[C@H]1O[C@@](C#N)(c2ccc3c(N)ncnn23)[C@H](O)[C@@H]1O)Oc1ccccc1", "Pericardial Effusion Rate(%)", 7.69],
  ["CC(C)c1nc(CN(C)C(=O)N[C@H](C(=O)N[C@@H](Cc2ccccc2)C[C@H](O)[C@H](Cc2ccccc2)NC(=O)OCc2cncs2)C(C)C)cs1", "Pericardial Effusion Rate(%)", 8.70],
  ["CC(C)C(=O)OC[C@H]1O[C@@H](n2ccc(NO)nc2=O)[C@H](O)[C@@H]1O", "Pericardial Effusion Rate(%)", 0.00],
  ["CCS(=O)(=O)N1CC(CC#N)(n2cc(-c3ncnc4[nH]ccc34)cn2)C1", "Pericardial Effusion Rate(%)", 9.30]
]}

----------
system: zebrafish larvae; assay: Behavioral assay (bright/dark locomotion test, DanioVision); settings: screening concentration 1 µM (Ivermectin 0.5 µM)
*1 amine or outer side, *2 acyl side, *3 side chain or, on linkers, in order; H or OH if unused. Where a SMILES comes first, the peptide text is derived from it. Bridges are numbered along the chain shown (N, C = ends). [ ]: non-standard residue; d: D form. The star is where a group is joined. pTerphenylCO(4''-OnC5H11) = CCCCCOc1ccc(-c2ccc(-c3ccc(C(=O)*)cc3)cc2)cc1; Orn(4R-OH,5R-OH) = O=C([C@H](C[C@@H](O)[C@@H](O)N[*:3])N[*:1])[*:2]; hTyr(3S-OH,4S-OH) = N[C@H](C(=O)O)[C@H](O)[C@@H](O)c1ccc(O)cc1; Pro(3S-OH,4S-Me) = C[C@H]1CN[C@H](C(=O)O)[C@H]1O; Hyp = O=C(O)[C@@H]1C[C@@H](O)CN1

{"columns": ["compound", "Effect on swimming behavior"],
 "data": [
  ["Cc1ccc(C(=O)Nc2ccc(CN3CCN(C)CC3)c(C(F)(F)F)c2)cc1C#Cc1cnc2cccnn12 [Ponatinib]", "effect"],
  ["CN(C)C(=O)COC(=O)Cc1ccc(OC(=O)c2ccc(NC(=N)N)cc2)cc1 [Camostat]", "effect"],
  ["COc1cc2nccc(Oc3ccc(NC(=O)C4(C(=O)Nc5ccc(F)cc5)CC4)cc3)c2cc1OC [Cabozantinib]", "effect"],
  ["CCCCCOc1ccc(-c2ccc(-c3ccc(C(=O)N[C@H]4C[C@@H](O)[C@@H](O)NC(=O)[C@@H]5[C@@H](O)[C@@H](C)CN5C(=O)[C@H]([C@@H](C)O)NC(=O)[C@H]([C@H](O)[C@@H](O)c5ccc(O)cc5)NC(=O)[C@@H]5C[C@@H](O)CN5C(=O)[C@H]([C@@H](C)O)NC4=O)cc3)cc2)cc1 [Anidulafungin] ({pTerphenylCO(4''-OnC5H11)}-[Orn(4R-OH,5R-OH)]T[Hyp][hTyr(3S-OH,4S-OH)]T[Pro(3S-OH,4S-Me)]; lactam 1-C)", "effect"],
  ["C[C@@H](c1nc(-c2ccc(C#N)cc2)cs1)[C@](O)(Cn1cncn1)c1ccc(F)cc1F [Ravuconazole]", "effect"],
  ["CC(C)C[C@H](NC(=O)[C@@H](NC(=O)c1cccc(-c2ccccc2)n1)[C@@H](C)O)B(O)O [Delanzomib]", "effect"],
  ["Cc1cccc(/C=N/Nc2cc(N3CCOCC3)nc(OCCc3ccccn3)n2)c1 [Apilimod]", "effect"]
]}
